Values from paper PMC4258470

Target: T1, TAZ2 domain of mouse CBP (residues 1764-1855) (mouse, UniProt P45481 1764-1855)
T1 sequence (looked up): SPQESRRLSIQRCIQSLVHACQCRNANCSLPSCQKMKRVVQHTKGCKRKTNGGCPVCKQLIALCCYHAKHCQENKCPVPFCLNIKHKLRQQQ
Test: fluorescence polarisation
Where no end group is shown, it is not given here. [ ]: non-standard residue; d: D form. pS = N[C@@H](COP(=O)(O)O)C(=O)O
quantity: Kd
Param answer (str): number followed by unit.

Notebook: ppE7(1-51) C24A,A50C-594, HPV16 E7(1-51) double mutant, phosphorylated and labelled with Alexa Fluor 594 (domain or fragment) MHGDTPTLHEYMLDLQPETTDLYAYEQLND[pS][pS]EEEDEIDGPAGQAEPDRC(Alexa Fluor 594)H , Kd read as 28 nM
